- tested.target: DLG1_3, Q12959
- Sequence (Q12959 457-571): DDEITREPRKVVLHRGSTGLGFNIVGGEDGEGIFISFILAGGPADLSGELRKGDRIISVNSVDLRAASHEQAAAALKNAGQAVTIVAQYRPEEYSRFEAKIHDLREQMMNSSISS
- assay.name: holdup assay
- Set-up: key: below the threshold = too weak to quantify, mostly under pKd 3.1 to 4
- condition.label: plain residues with an end cap or a label only (N-terminal biotin on a linker: ado-ado)
parameter.measured: pKd

Examples with answers:
Would you kindly share the measured pKd for SKENVQETQI [LRRC4B, Q9NT99] ?
3.77

# lookup: pKd of SARSRLSSNL [HCN2, Q9UL51]
below the threshold

# get_value(readout='pKd', item= DTTVPESEDL [MYOZ2, Q9NPC6] )
below the threshold

I'd like to know its pKd. The binder in question is NHSSSPETTA [TRMT13, Q9NUP7]
below the threshold

Return reported pKd; argument: QSLNRMEYIV [JAG1, P78504]
below the threshold

In the following, a different binder is considered.
Suppose we examine the binder PRISRSQSEL [CCDC134, Q9H6E4] ; what pKd value has been reported?
below the threshold
